In this section, each of the compounds is paired with its reported pIC50.
Target: human Nav1.8 (Homo sapiens (Human), UniProt Q9Y5Y9)
Sequence (Q9Y5Y9 whole entry): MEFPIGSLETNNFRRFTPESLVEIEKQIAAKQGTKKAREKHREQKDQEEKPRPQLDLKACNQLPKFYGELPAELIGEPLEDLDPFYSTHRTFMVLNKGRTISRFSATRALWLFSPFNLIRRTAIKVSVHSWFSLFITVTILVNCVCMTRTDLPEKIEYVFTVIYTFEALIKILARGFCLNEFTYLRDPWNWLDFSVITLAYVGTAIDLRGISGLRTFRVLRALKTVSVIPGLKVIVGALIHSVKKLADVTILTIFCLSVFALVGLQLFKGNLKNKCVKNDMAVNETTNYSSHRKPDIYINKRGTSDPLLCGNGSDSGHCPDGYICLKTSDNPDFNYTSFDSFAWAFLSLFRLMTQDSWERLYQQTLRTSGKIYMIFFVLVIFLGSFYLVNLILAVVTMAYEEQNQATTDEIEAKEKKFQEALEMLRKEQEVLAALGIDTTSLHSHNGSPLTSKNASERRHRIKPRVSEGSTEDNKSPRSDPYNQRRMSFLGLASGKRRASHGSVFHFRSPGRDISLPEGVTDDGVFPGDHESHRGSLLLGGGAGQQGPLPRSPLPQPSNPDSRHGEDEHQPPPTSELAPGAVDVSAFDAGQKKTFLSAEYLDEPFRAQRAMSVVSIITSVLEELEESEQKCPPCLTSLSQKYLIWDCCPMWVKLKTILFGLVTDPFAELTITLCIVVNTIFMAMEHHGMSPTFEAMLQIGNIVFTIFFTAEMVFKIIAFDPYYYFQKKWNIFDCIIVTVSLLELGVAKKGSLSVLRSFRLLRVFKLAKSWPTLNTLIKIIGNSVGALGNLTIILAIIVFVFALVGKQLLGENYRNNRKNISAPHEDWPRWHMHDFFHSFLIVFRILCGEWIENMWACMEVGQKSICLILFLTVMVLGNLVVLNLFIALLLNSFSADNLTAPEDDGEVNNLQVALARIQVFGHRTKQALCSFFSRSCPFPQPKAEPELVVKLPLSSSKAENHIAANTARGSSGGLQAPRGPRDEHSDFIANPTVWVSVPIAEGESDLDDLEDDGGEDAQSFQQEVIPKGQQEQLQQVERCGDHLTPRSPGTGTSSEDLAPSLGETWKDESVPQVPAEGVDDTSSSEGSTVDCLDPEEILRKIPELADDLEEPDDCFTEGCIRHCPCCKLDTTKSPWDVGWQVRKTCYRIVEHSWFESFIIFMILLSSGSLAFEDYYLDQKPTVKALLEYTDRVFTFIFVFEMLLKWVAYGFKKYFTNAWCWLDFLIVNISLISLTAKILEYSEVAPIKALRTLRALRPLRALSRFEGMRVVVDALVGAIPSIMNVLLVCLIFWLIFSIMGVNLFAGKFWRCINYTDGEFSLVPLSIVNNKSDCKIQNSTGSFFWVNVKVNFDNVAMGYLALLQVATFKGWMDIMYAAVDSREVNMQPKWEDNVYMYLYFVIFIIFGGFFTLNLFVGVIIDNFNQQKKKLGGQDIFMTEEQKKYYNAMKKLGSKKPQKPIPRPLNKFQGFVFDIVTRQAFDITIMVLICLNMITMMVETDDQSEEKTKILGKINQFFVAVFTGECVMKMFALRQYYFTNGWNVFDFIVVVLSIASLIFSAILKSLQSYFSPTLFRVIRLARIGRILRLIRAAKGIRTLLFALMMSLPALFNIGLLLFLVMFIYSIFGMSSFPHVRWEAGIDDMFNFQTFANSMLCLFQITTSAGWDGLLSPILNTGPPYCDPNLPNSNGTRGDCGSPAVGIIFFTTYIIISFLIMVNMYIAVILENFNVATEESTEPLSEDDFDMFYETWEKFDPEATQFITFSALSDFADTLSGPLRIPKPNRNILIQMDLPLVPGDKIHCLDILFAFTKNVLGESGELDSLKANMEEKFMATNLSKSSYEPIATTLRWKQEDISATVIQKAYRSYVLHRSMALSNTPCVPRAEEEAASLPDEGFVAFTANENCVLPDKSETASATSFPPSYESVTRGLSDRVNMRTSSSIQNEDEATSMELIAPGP
Test: Nav1.8 Qube® Assay (automated 384-well patch-clamp)
Conditions: human Nav1.8 channels stably expressed in HEK 293 cells
pIC50: −log10 of the molar value.
EXPERIMENTAL_ENDPOINT: pIC50

1. O=C1NC[C@@H](C(=O)NC(c2ccc(Cl)cc2)c2ccc(OCC(F)(F)F)nn2)O1 (single isomer, unassigned) [Example 73B]
7.10
2. O=C1NC[C@@H](C(=O)NC(c2ccc(Cl)cc2)C2CCC(F)(F)C2)O1 (single isomer, unassigned) [Example 57C]
6.04
3. O=C1NC[C@@H](C(=O)NC(c2ccc(Cl)cc2)c2ccnc(C(F)(F)F)n2)O1 (single isomer, unassigned) [Example 11B]
6.40

* * *

Target: human Nav1.8 (Homo sapiens (Human), UniProt Q9Y5Y9)
Experiment: Nav1.8 Qube® Assay (automated 384-well patch-clamp)
Conditions: human Nav1.8 channels stably expressed in HEK 293 cells
The entries below come with measured IC50 values attached.
EXPERIMENTAL_ENDPOINT: IC50 (nM)

1. Cn1nc(C(F)(F)F)cc1C(NC(=O)[C@@H]1CNC(=O)O1)c1ccc(F)c(Cl)c1 (single isomer, unassigned) [Example 61A]
4.6
2. O=C1NC[C@@H](C(=O)NC(c2ccc(F)c(Cl)c2)c2cnn(CC(F)(F)F)c2)O1 (single isomer, unassigned) [Example 59A]
171
3. COc1ncccc1C(NC(=O)[C@@H]1CNC(=O)O1)c1ccc(F)c(Cl)c1 (single isomer, unassigned) [Example 58B]
24

* * *

Biological target: human Nav1.8 (Homo sapiens (Human))
Assay: Nav1.8 Qube® Assay (automated 384-well patch-clamp)
Settings: human Nav1.8 channels stably expressed in HEK 293 cells
Recorded IC50 by entry
EXPERIMENTAL_ENDPOINT: IC50 (nM)

1) O=C1NC[C@@H](C(=O)NC(c2ccc(Cl)cc2)C2CCC(F)(F)C2)O1 (single isomer, unassigned) [Example 57A]
3450
2) O=C1NC[C@@H](C(=O)NC(c2ccc(Cl)cc2)c2ccc(F)c(Cl)c2)O1 (single isomer, unassigned) [Example 19B]
2.4
3) O=C1NC[C@@H](C(=O)NC(c2ccc(Cl)cc2)c2ccc(C(F)(F)F)cn2)O1 (single isomer, unassigned) [Example 37B]
26
4) O=C1NC[C@@H](C(=O)NC(c2ccccc2)c2cc(Cl)cc(Cl)c2)O1 (stereo partly drawn)
32
5) O=C1NC[C@@H](C(=O)NC(c2ccc(F)c(Cl)c2)c2cc(C(F)(F)F)[nH]n2)O1 (single isomer, unassigned) [Example 5B]
265
6) Cc1cc(C(NC(=O)[C@@H]2CNC(=O)O2)c2ccc(Cl)cc2)ccc1Cl (single isomer, unassigned) [Example 46A]
0.6

* * *

Reported pIC50 is given for each of the following compounds.
Target: human Nav1.8 (Homo sapiens (Human), UniProt Q9Y5Y9)
Test: Nav1.8 Qube® Assay (automated 384-well patch-clamp)
Conditions: human Nav1.8 channels stably expressed in HEK 293 cells
pIC50: −log10 of the molar value.
EXPERIMENTAL_ENDPOINT: pIC50

1) O=C1NC[C@@H](C(=O)NC(c2ccc(Cl)cc2)c2ccc(F)cn2)O1 (single isomer, unassigned) [Example 23A]
5.87
2) O=C1NC[C@@H](C(=O)NC(c2ccc(Cl)cc2)c2ccc3ccccc3c2)O1 (stereo partly shown)
8.41
3) O=C1NC[C@@H](C(=O)NC(c2ccc(F)c(Cl)c2F)[C@@H]2CC[C@@H](C(F)(F)F)CO2)O1 (single isomer, unassigned) [Example 9B]
8.02
4) O=C1NC[C@@H](C(=O)NC(c2ccc(Cl)cc2)c2ccc(F)c(C(F)F)n2)O1 (single isomer, unassigned) [Example 16A]
6.62
5) O=C1NC[C@@H](C(=O)NC(c2ccc(F)c(Cl)c2)c2csc(C(F)(F)F)n2)O1 (single isomer, unassigned) [Example 44A]
8.34
6) Cn1nc(C(F)(F)F)cc1C(NC(=O)[C@@H]1CNC(=O)O1)c1ccc(F)c(Cl)c1 (single isomer, unassigned) [Example 61B]
6.64
7) O=C1NC[C@@H](C(=O)NC(c2ccc(Cl)cc2)C23C4C5C6C4C2C6C53)O1 (single isomer, unassigned) [Example 56A]
6.64
8) O=C1NC[C@@H](C(=O)NC(c2ccc(Cl)cc2)c2ccc(Cl)c(C(F)(F)F)c2)O1 (single isomer, unassigned) [Example 35B]
8.42
9) O=C1NC[C@@H](C(=O)NC(c2ccc(F)c(Cl)c2)c2ccc(F)c(OCC(F)(F)F)n2)O1 (single isomer, unassigned) [Example 1A]
7.34
10) O=C1NC[C@@H](C(=O)NC(c2ccc(Cl)cc2)c2nc(C(F)(F)F)cs2)O1 (single isomer, unassigned) [Example 12A]
7.80
11) O=C1NC[C@@H](C(=O)NC(c2ccc(Cl)cc2)c2ccnc(C(F)(F)F)c2)O1 (stereo partly shown)
7.03
12) COc1cc(Cl)ccc1C(NC(=O)[C@@H]1CNC(=O)O1)c1ccc(F)cc1 (single isomer, unassigned) [Example 55A]
7.72
13) O=C1NC[C@@H](C(=O)NC(c2ccc(Cl)cc2)c2ccc(OCC(F)(F)F)nn2)O1 (single isomer, unassigned) [Example 73A]
6.02
14) O=C1NC[C@@H](C(=O)NC(c2ccc(F)c(Cl)c2F)[C@@H]2C[C@@H]3[C@H](C2)C3(F)F)O1 (single isomer, unassigned) [Example 74B]
6.41
15) CS(=O)(=O)c1cccc(C(NC(=O)[C@@H]2CNC(=O)O2)c2ccc(Cl)cc2)c1 (stereo partly shown)
6.15
16) O=C1NC[C@@H](C(=O)NC(c2ccc(Cl)cc2)c2ccc(F)c(C(F)F)n2)O1 (single isomer, unassigned) [Example 16B]
8.48
17) O=C1NC[C@@H](C(=O)NC(COc2ccc(C(F)(F)F)nc2)c2ccc(F)c(Cl)c2)O1 (stereo partly shown)
6.57
18) O=C1NC[C@@H](C(=O)NC(c2ccc(Cl)cc2)C23C4C5C6C4C2C6C53)O1 (single isomer, unassigned) [Example 56B]
6.54
19) O=C1NC[C@@H](C(=O)NC(c2ccc(Cl)cc2)C23CCC(CC2)C3)O1 (single isomer, unassigned) [Example 3B]
5.84

* * *

Property: IC50; scope: individual molecules
Target: human Nav1.8 (Homo sapiens (Human), UniProt Q9Y5Y9)
Assay: Nav1.8 Qube® Assay (automated 384-well patch-clamp)
Conditions: human Nav1.8 channels stably expressed in HEK 293 cells
EXPERIMENTAL_ENDPOINT: IC50 (nM)

1. O=C1NC[C@@H](C(=O)NC(c2ccc(Cl)cc2)c2ccc(F)c(Cl)c2)O1 (single isomer, unassigned) [Example 19A]
0.9
2. O=C1NC[C@@H](C(=O)NC(c2ccc(OC(F)F)cc2)c2ccc(F)c(Cl)c2)O1 (single isomer, unassigned) [Example 48B]
6.8
3. O=C1NC[C@@H](C(=O)NC(c2ccc(Cl)cc2)c2c[nH]c(C(F)(F)F)n2)O1 (single isomer, unassigned) [Example 17A]
593
4. O=C1NC[C@@H](C(=O)NC(c2ccc(Cl)cc2)c2ccc(OC(F)F)nc2)O1 (stereo partly shown)
69
5. O=C1NC[C@@H](C(=O)NC(c2ccc(F)c(Cl)c2)c2ccn(C(F)F)n2)O1 (single isomer, unassigned) [Example 60B]
124
6. O=C1NC[C@@H](C(=O)NC(c2ccccc2)c2ccc(Cl)c(Cl)c2)O1 (single isomer, unassigned) [Example 25A]
2.7
7. O=C1NC[C@@H](C(=O)NC(c2ccc(Cl)cc2)c2ccc(F)cn2)O1 (single isomer, unassigned) [Example 23B]
233
8. O=C1NC[C@@H](C(=O)NC(c2ccc(F)c(Cl)c2)C2CCN(CC(F)(F)F)C2)O1 (single isomer, unassigned) [Example 43B]
807
9. O=C1NC[C@@H](C(=O)NC(c2ccc(Cl)c(C(F)(F)F)n2)C2CCC(F)(F)CC2)O1 (single isomer, unassigned) [Example 63B]
574
10. O=C1NC[C@@H](C(=O)NC(c2cncc(Cl)c2)c2ccc(F)c(Cl)c2)O1 (single isomer, unassigned) [Example 13A]
573
11. COc1ccc(Cl)cc1C(NC(=O)[C@@H]1CNC(=O)O1)c1cccc(Cl)c1 (single isomer, unassigned) [Example 28A]
21
12. CC(C)(C)c1csc(C(NC(=O)[C@@H]2CNC(=O)O2)c2ccc(Cl)cc2)n1 (single isomer, unassigned) [Example 39B]
64
13. O=C1NC[C@@H](C(=O)NC(COc2ccc(F)c(Cl)c2)c2ccc(F)c(Cl)c2)O1 (single isomer, unassigned) [Example 8A]
40
14. O=C1NC[C@@H](C(=O)NC(c2cccc(Cl)c2)C2CC2c2ccccc2)O1 (single isomer, unassigned) [Example 26B]
70
15. O=C1NC[C@@H](C(=O)NC(c2ccc(Cl)cc2)C23CCC(CC2)C3)O1 (single isomer, unassigned) [Example 3A]
133
16. O=C1NC[C@@H](C(=O)NC(Cc2ccc(Cl)cc2)c2ccc(OC(F)(F)F)cc2)O1 (stereo partly shown)
246

Every entry's value here was drawn from patent US12516046B2.
